Biological target: 72 kDa type IV collagenase (Homo sapiens)
Sequence (P08253 whole entry): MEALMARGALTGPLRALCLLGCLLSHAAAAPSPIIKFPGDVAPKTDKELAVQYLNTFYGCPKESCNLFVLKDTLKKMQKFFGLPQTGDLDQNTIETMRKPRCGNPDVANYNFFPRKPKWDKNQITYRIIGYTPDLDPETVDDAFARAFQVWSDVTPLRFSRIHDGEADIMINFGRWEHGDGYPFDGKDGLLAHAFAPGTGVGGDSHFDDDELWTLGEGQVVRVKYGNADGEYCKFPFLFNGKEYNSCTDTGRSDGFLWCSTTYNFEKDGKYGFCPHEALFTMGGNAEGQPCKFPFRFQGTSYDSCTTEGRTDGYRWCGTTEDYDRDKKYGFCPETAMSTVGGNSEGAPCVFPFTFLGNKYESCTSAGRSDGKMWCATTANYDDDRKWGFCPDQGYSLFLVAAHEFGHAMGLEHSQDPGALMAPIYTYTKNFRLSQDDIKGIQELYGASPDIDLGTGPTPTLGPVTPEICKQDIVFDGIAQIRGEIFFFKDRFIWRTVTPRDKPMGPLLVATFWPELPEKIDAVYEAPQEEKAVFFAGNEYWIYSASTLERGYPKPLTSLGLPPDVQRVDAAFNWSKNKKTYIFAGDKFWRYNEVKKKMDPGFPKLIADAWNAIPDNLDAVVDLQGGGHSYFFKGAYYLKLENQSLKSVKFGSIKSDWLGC
endpoint.label: IC50 (nM)

Some compounds with known IC50 results, for comparison:
O=C(/C=C/c1cccc(O)c1)Nc1ccc(Cl)cc1 = 9.11
O=C(/C=C/c1cccc(O)c1)Nc1ccc(F)cc1 = 8.59
O=C(/C=C/c1ccc(O)c(O)c1)Nc1cccc(Cl)c1 = 1870
O=C(/C=C/c1ccc(O)c(O)c1)NCCc1ccccc1 [CAFFEIC ACID PHENETHYL AMIDE] = 8.2
Cc1ccc(NC(=O)/C=C/c2ccccc2)cc1 [N-P-TOLYLCINNAMAMIDE] = 5.46
O=C(O)/C=C/c1ccc(O)c(O)c1 = 24.3

a = O=C(/C=C/c1ccc(O)cc1)Nc1ccccc1F
b = Cc1cccc(NC(=O)/C=C/c2ccc(O)cc2)c1
Which record shows the lower IC50: the first, a , or the second, b ? Your answer should be the label of the entry you select.
a
(a: 9.01 nM, b: 1750 nM)

a = O=C(/C=C/c1ccc(O)cc1)NCCc1ccccc1
b = O=C(/C=C/c1ccccc1)Nc1ccc(O)cc1
Which record shows the lower IC50: the first, a , or the second, b ? Your answer should be the label of the entry you select.
b

1 = O=C(/C=C/c1cccc(O)c1)NCc1ccccc1
2 = Cc1ccc(NC(=O)/C=C/c2ccc(O)c(O)c2)cc1
3 = Cc1cccc(NC(=O)/C=C/c2ccccc2)c1 [N-M-TOLYLCINNAMAMIDE]
Please list the entries, largest IC50 first. Reply format: the labels, ordered as requested.
3, 1, 2

I = O=C(/C=C/c1ccccc1)NCCc1ccccc1
II = Cc1ccccc1NC(=O)/C=C/c1ccc(O)c(O)c1
Which record shows the lower IC50: the first, I , or the second, II ? Your answer should be the label of the entry you select.
II
(II: 5.97 nM, I: 9.13 nM)
